Provenance of the data: patent US5925769A

Target: 5-LO (Rattus norvegicus, UniProt P12527)
Construct: the supernatant was saved as the source of enzymes; endogenous in cells; host or cells: RBL-1 (rat basophilic leukemia) cells
Sequence (P12527 whole entry): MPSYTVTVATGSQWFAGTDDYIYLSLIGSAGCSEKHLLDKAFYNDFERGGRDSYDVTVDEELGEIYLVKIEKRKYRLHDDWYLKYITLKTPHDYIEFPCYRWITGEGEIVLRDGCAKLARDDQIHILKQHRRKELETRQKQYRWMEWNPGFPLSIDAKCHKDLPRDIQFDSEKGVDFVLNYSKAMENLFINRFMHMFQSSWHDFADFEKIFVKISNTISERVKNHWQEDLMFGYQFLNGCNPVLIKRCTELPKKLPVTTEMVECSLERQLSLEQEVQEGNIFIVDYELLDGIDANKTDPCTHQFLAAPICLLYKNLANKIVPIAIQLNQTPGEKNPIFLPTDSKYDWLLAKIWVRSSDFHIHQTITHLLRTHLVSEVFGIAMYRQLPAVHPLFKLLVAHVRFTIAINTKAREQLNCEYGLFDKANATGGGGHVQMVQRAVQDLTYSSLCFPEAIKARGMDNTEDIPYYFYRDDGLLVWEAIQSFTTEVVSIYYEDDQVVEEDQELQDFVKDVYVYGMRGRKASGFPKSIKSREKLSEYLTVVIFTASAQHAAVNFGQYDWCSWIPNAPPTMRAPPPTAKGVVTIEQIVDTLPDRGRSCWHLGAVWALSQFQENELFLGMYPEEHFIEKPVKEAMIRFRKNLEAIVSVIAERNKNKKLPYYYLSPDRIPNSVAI
Assay: Procedure III: 5-LO (5-HETE) in intact RBL-1 cells
Format: cell-based
Details: calcium ionophore A 23187, read-out: Proc. III 5-LO IC50
recorded-endpoint: IC50 (µM)

Below are worked cases with known answers.
| molecule | tested-target | recorded-endpoint | recorded-result |
| --- | --- | --- | --- |
| COc1ccc(-n2nc(C#CCN(O)C(N)=O)cc2-c2ccc(Cl)cc2)cc1 [Cpd 5] | 5-LO (Rattus norvegicus, UniProt P12527) | IC50 | 0.9 |
| CCC(=O)N(O)CC#Cc1cc(-c2ccc(C)cc2)n(-c2ccc(OC)cc2)n1 [Cpd 14] | 5-LO (Rattus norvegicus, UniProt P12527) | IC50 | 3 |
| COc1ccc(-n2nc(C#CC(C)N(O)C(=O)C(C)C)cc2-c2ccc(C)cc2)cc1 (centres unmarked) [Cpd 20] | 5-LO (Rattus norvegicus, UniProt P12527) | IC50 | 5.6 |
| CCOC(=O)C(=O)N(O)C(C)C#Cc1cc(-c2ccc(C)cc2)n(-c2ccc(OC)cc2)n1 (centres unmarked) [Cpd 24] | 5-LO (Rattus norvegicus, UniProt P12527) | IC50 | 8.5 |

P: CCC(C#Cc1cc(-c2ccc(Cl)cc2)n(-c2ccc(OC)cc2)n1)N(O)C(N)=O (centres unmarked) [Cpd 11]
Q: COc1ccc(-n2nc(C#CC(C)N(O)C(N)=O)cc2-c2ccc(C)cc2)cc1 (centres unmarked) [Cpd 2]
R: COc1ccc(-n2nc(C#CC(C)N(O)C(=O)C(F)(F)F)cc2-c2ccc(C)cc2)cc1 (centres unmarked) [Cpd 23]
S: CCc1ccc(-c2cc(C#CC(C)N(O)C(=O)CCl)nn2-c2ccc(OC)cc2)cc1 (centres unmarked) [Cpd 31]
Challenge: Ranking field: IC50; order: falling. Answer format: list of labels, ordered as asked.
Response given: S, R, Q, P
(S: 36.8 µM, R: 23.5 µM, Q: 7.7 µM, P: 2.17 µM)

====

Target: CO (Rattus norvegicus, UniProt Q63921)
Construct: the supernatant was saved as the source of enzymes; endogenous in cells; host or cells: RBL-1 (rat basophilic leukemia) cells
Sequence (Q63921 27-602): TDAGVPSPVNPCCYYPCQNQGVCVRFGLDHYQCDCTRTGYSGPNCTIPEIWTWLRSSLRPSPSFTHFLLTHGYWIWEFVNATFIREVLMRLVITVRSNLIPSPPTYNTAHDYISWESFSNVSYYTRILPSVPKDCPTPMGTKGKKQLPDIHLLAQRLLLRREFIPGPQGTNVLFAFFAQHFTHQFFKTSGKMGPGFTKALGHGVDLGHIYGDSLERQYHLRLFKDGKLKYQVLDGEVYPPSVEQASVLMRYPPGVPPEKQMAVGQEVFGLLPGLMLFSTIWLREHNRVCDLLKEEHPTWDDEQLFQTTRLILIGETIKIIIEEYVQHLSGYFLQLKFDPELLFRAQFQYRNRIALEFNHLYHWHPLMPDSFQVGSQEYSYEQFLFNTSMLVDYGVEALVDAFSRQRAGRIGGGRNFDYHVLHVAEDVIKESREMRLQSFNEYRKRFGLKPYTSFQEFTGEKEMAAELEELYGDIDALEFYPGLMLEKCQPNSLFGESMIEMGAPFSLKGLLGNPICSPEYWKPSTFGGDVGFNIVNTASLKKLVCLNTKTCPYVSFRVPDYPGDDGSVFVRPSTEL
Assay: Procedure III: CO (PgD2) in intact RBL-1 cells
Type: cell-based
Details: calcium ionophore A 23187, read-out: Proc. III CO IC50
pIC50: −log10 of the molar value.
recorded-endpoint: pIC50

Below are worked cases with known answers.
| compound | tested-target | recorded-result |
| --- | --- | --- |
| COc1ccc(-n2nc(C#CC(C(C)C)N(O)C(N)=O)cc2-c2ccc(Cl)cc2)cc1 (centres unmarked) [Cpd 12] | CO (Rattus norvegicus, UniProt Q63921) | 4.84 |
| COc1ccc(-n2nc(C#CC(C)N(O)C(=O)c3ccccc3)cc2-c2ccc(Cl)cc2)cc1 (centres unmarked) [Cpd 40] | CO (Rattus norvegicus, UniProt Q63921) | 5.26 |
| COC(=O)N(O)CC#Cc1cc(-c2ccc(C)cc2)n(-c2ccc(OC)cc2)n1 [Cpd 17] | CO (Rattus norvegicus, UniProt Q63921) | 6.55 |
| CCOC(=O)CCC(=O)N(O)C(C)C#Cc1cc(-c2ccc(C)cc2)n(-c2ccc(OC)cc2)n1 (centres unmarked) [Cpd 22] | CO (Rattus norvegicus, UniProt Q63921) | 5.00 |
| CCOC(=O)CCC(=O)N(O)C(C)C#Cc1cc(-c2ccc(CC)cc2)n(-c2ccc(OC)cc2)n1 (centres unmarked) [Cpd 32] | CO (Rattus norvegicus, UniProt Q63921) | 4.85 |

a: CCC(=O)N(O)CC#Cc1cc(-c2ccc(C)cc2)n(-c2ccc(OC)cc2)n1 [Cpd 14]
b: CCC(C#Cc1cc(-c2ccc(Cl)cc2)n(-c2ccc(OC)cc2)n1)N(O)C(N)=O (centres unmarked) [Cpd 11]
Challenge: Of the pair a and b , name the member with the lesser recorded pIC50. Use the label to indicate which entry you chose.
Response given: b
